Listed compounds paired with reported pIC50
target or system: PDE10A
assay remarks: Phosphodiesterase assay (TR-FRET, LANCE cAMP kit)
Assay type: biochemical
applied conditions: PDE10A (BPS Bioscience) 200 pg/well, biotin-cAMP substrate, 60 min at room temperature
Experimental: The PDE assay is based on the homogenous time-resolved fluorescence resonance energy transfer (TR-FRET) technology (LANCE® from Perkin Elmer). […] In a 384-well plate, 2 μL inhibitor and 3 μL PDE were added to the well, followed by the addition of 5 μl substrate biotinylated cAMP (1:5). […] After 1 h at room temperature, the signal was measured on EnVision™ (Perkin Elmer).
pIC50: −log10 of the molar value. Structures can show the parent of a compound that is named as a salt.
quantity name: pIC50

compound | observed
CCCc1nc(O)c(Cc2cnc3ccccc3c2)c2cc(OC)c(OC)cc12 [Compound 74, hydrochloride] | 8.21
CCNc1nc2ccc(OCC)cc2cc1Cc1c(O)nc(CC)c2cc(OC)c(OC)cc12 [Compound 41, dihydrochloride] | 8.30
CCc1nc(O)c(Cc2ccc3nc(C)ccc3c2)c2cc(OC)c(OC)cc12 [Compound 81, dihydrochloride] | 8.12
CCCc1nc(O)c(Cc2cc3cc(C)ccc3nc2NC)c2cc(OC)c(OC)cc12 [Compound 34, dihydrochloride] | 8.72
CCCc1nc(O)c(Cc2cc3cc(OC)ccc3nc2C(F)(F)F)c2cc(OC)c(OC)cc12 [Compound 72, hydrochloride] | 6.35
CCc1nc(O)c(Cc2cccc(-c3cccc(N)c3)c2)c2cc(OC)c(OC)cc12 [Compound 10, dihydrochloride] | 7.28
COc1ccc(-c2cncc(Cc3c(O)nc(C)c4cc(OC)c(OC)cc34)c2)cc1 [Compound 16, dihydrochloride] | 7.16
CCc1nc(O)c(Cc2cc3cc4c(cc3nc2NC)OCO4)c2cc(OC)c(OC)cc12 [Compound 61, dihydrochloride] | 8.66
COc1cc2c(C)nc(O)c(Cc3ccc4ccccc4c3)c2cc1OC [Compound 17, hydrochloride] | 7.85
CCNc1nc2ccc(OCC)cc2cc1Cc1c(O)nc(C(C)C)c2cc(OC)c(OC)cc12 [Compound 46, dihydrochloride] | 7.54
CCCc1nc(O)c(Cc2cc3cc(OC)ccc3nc2NCC(F)(F)F)c2cc(OC)c(OC)cc12 [Compound 54, dihydrochloride] | 7.64
CCCc1nc(O)c(Cc2cc3cc(OC)c(F)cc3nc2NCC)c2cc(OC)c(OC)cc12 [Compound 70, dihydrochloride] | 8.62
CCCc1nc(O)c(Cc2cnc3ccc(OC)cc3c2)c2cc(OC)c(OC)cc12 [Compound 84, dihydrochloride] | 8.80
CNc1nc2ccc(OC)cc2cc1Cc1c(O)nc(C)c2cc(OC)c(OC)cc12 [Compound 37, dihydrochloride] | 8.22
COc1cc2c(C)nc(O)c(Cc3cnc4cccc(OC)c4c3)c2cc1OC [Compound 27, dihydrochloride] | 7.77
